Recorded abundance fitness by entry
B1: Neutrophil cytosol factor 2, residues 456 to 514; numbered along this chain, P19878 (parent)
chain: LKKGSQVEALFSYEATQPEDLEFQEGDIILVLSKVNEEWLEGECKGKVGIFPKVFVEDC

Variants of: B1
MEASUREMENT PROTOCOL: abundance fitness (aPCA) (normalised: wild type 0, dead -1); higher = more abundant; growth selection in yeast, the domain comes from the species named
CONDITION SUMMARY: Homo sapiens
// response body must contain only the number

Answered cases to consult:
   variant_string   value
0            K34H   0.059
1            Q24T  -0.257

For record "D20W" the listed abundance fitness is -0.7

For record "Q17L" the listed abundance fitness is -0.266

For record "Q24C" the listed abundance fitness is -0.197

For record "D27Q" the listed abundance fitness is -0.212
